Test system: Acinetobacter baumannii
Assay: Antibacterial susceptibility testing (MIC), A. baumannii
Format: cell-based
Details: MDR clinical isolate NM75, read-out: MIC A. baumannii NM75
MEASURED_METRIC: MIC (µg/mL)

                                   compound  limit_qualifier  value_observed
0  CC[C@H](c1ccc(O)cc1)[C@@H](CC)c1ccc(F)cc1 [S1.13]                >             500
1  CC(=O)Nc1cccc(-c2ccccc2Cl)c1 [S1.7, N-[3-(2-chlorophenyl)phenyl]acetamide]                >             500
2           Nc1nccc(Nc2ccc(Br)cc2)n1 [F1.8]                =             250
3  CC(C)NCC(O)COc1cccc2[nH]c3ccccc3c12 (centres unmarked) [F2.4]                >             500
4   CC(C)(C)c1ccc(O)c(CNc2ccccc2)c1 [S1.14]                =             500

---

Test system: Staphylococcus epidermidis
Assay: Antibacterial susceptibility testing (MIC/MBC), S. epidermidis
Type: cell-based
Settings: Staphylococcus epidermidis, clinical isolate T37/8; read-out: MIC S. epidermidis T37/8
MEASURED_METRIC: MIC (µg/mL)

                                   molecule            target_or_system  limit_qualifier  value_observed
0  CC(=O)Nc1cccc(-c2ccccc2Cl)c1 [S1.7, N-[3-(2-chlorophenyl)phenyl]acetamide]  Staphylococcus epidermidis                >             500
1                     Nc1nc(-c2ccccc2Cl)cs1  Staphylococcus epidermidis                >             500
2               NCCc1ccc2c(c1)[nH]c1ccccc12  Staphylococcus epidermidis                =             125
3                   Nc1nc(-c2ccc(Br)cc2)cs1  Staphylococcus epidermidis                >             500
4  CC[C@H](c1ccc(O)cc1)[C@@H](CC)c1ccc(F)cc1  Staphylococcus epidermidis                =              16
5                   Oc1cccc2[nH]c3ccccc3c12  Staphylococcus epidermidis                =             250
6           CC(C)(C)c1ccc(O)c(CNc2ccccc2)c1  Staphylococcus epidermidis                =             500
7                  Nc1nccc(Nc2ccc(Br)cc2)n1  Staphylococcus epidermidis                =             500

---

Test system: Staphylococcus aureus
Test: Antibacterial susceptibility testing (MIC/MBC), S. aureus
Format: cell-based
Settings: Staphylococcus aureus, MRSA, MRSA clinical isolate T4/6; read-out: MIC S. aureus T4/6
MEASURED_METRIC: MIC (µg/mL)

In [3]: df
Out[3]:
                                   molecule  limit_qualifier  value_observed
0               NCCc1ccc2c(c1)[nH]c1ccccc12                =             250
1                   Oc1cccc2[nH]c3ccccc3c12                =             250
2                     Nc1nc(-c2ccccc2Cl)cs1                =             250
3           CC(C)(C)c1ccc(O)c(CNc2ccccc2)c1                =             250
4                  Nc1nccc(Nc2ccc(Br)cc2)n1                =             250
5  CC(=O)Nc1cccc(-c2ccccc2Cl)c1 [S1.7, N-[3-(2-chlorophenyl)phenyl]acetamide]                =             250
6  CC(C)NCC(O)COc1cccc2[nH]c3ccccc3c12 (stereo not drawn)                >             500
7  CC[C@H](c1ccc(O)cc1)[C@@H](CC)c1ccc(F)cc1                =               8
8                   Nc1nc(-c2ccc(Br)cc2)cs1                =             125
